Target: Tyrosinase (Homo sapiens)
Experiment: Inhibition of tyrosinase in human A375 cells assessed as effect on alpha-MSH-induced melanin formation at 25 uM after 24 hrs relative to control
Assay type: cell-based
Set-up: scale not given: the % may be the effect or the level left
PROPERTY_LABEL: Activity (%)

MOLECULE: O=C(Oc1ccc(CCc2cc(OC(=O)C3CCCC3)cc(OC(=O)C3CCCC3)c2)cc1)C1CCCC1
EXPERIMENTAL_SYSTEM: Tyrosinase (Homo sapiens)
PROPERTY_LABEL: Activity
NUMERIC_RESULT: 97.2
--
MOLECULE: O=C(Oc1ccc(CCc2cc(OC(=O)c3ccccc3)cc(OC(=O)c3ccccc3)c2)cc1)c1ccccc1
EXPERIMENTAL_SYSTEM: Tyrosinase (Homo sapiens)
PROPERTY_LABEL: Activity
NUMERIC_RESULT: 85.2
--
MOLECULE: C=CCOc1ccc(CCc2cc(OCC=C)cc(OCC=C)c2)cc1
EXPERIMENTAL_SYSTEM: Tyrosinase (Homo sapiens)
PROPERTY_LABEL: Activity
NUMERIC_RESULT: 88.1
--
MOLECULE: Oc1ccc(CCc2cc(O)cc(O)c2)cc1 [DIHYDRORESVERATROL]
EXPERIMENTAL_SYSTEM: Tyrosinase (Homo sapiens)
PROPERTY_LABEL: Activity
NUMERIC_RESULT: 78
--
MOLECULE: CCCOc1ccc(CCc2cc(OCCC)cc(OCCC)c2)cc1
EXPERIMENTAL_SYSTEM: Tyrosinase (Homo sapiens)
PROPERTY_LABEL: Activity
NUMERIC_RESULT: 85.1
--
MOLECULE: CC(C)(C)C(=O)Oc1ccc(CCc2cc(OC(=O)C(C)(C)C)cc(OC(=O)C(C)(C)C)c2)cc1
EXPERIMENTAL_SYSTEM: Tyrosinase (Homo sapiens)
PROPERTY_LABEL: Activity
NUMERIC_RESULT: 94.6
--
MOLECULE: O=C(Oc1ccc(CCc2cc(OC(=O)c3ccc(Cl)cc3)cc(OC(=O)c3ccc(Cl)cc3)c2)cc1)c1ccc(Cl)cc1
EXPERIMENTAL_SYSTEM: Tyrosinase (Homo sapiens)
PROPERTY_LABEL: Activity
NUMERIC_RESULT: 93.4
--
MOLECULE: O=C1O[C@H]([C@@H](O)CO)C(O)=C1O
EXPERIMENTAL_SYSTEM: Tyrosinase (Homo sapiens)
PROPERTY_LABEL: Activity
NUMERIC_RESULT: 75
--
MOLECULE: O=C(OCc1ccccc1)Oc1ccc(CCc2cc(OC(=O)OCc3ccccc3)cc(OC(=O)OCc3ccccc3)c2)cc1
EXPERIMENTAL_SYSTEM: Tyrosinase (Homo sapiens)
PROPERTY_LABEL: Activity
NUMERIC_RESULT: 92.4

====

Target: UniProt P14679
Sequence (P14679 whole entry): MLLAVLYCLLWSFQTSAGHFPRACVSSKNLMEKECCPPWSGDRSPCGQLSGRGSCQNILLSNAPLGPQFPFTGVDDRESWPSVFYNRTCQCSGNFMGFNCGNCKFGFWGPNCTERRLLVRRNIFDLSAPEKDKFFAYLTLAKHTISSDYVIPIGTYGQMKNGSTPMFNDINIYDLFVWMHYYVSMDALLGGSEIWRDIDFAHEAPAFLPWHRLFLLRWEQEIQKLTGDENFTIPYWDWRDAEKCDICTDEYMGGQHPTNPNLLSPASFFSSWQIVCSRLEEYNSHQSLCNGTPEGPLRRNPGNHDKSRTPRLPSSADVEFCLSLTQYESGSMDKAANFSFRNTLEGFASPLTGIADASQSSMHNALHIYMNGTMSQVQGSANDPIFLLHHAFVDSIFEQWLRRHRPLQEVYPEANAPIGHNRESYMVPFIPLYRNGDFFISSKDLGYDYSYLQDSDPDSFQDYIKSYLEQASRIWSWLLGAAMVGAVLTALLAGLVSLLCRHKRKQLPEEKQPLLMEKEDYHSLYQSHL
Assay: Inhibition of tyrosinase in human A375 cells assessed as effect on alpha-MSH-induced melanin formation at 25 uM after 24 hrs relative to control
Format: cell-based
Parameters: scale not given: the % may be the effect or the level left
PROPERTY_LABEL: Activity (%)

// solved cases for Activity follow
MOLECULE: Oc1ccc(/C=C/c2cc(O)cc(O)c2)cc1 [RESVERATROL]
READING_UNIT: %
Activity: 80.4
--
MOLECULE: COc1ccc(C(=O)Oc2ccc(CCc3cc(OC(=O)c4ccc(OC)cc4)cc(OC(=O)c4ccc(OC)cc4)c3)cc2)cc1
READING_UNIT: %
Activity: 104

A. CCCC(=O)Oc1ccc(CCc2cc(OC(=O)CCC)cc(OC(=O)CCC)c2)cc1
B. C=CC(=O)Oc1ccc(CCc2cc(OC(=O)C=C)cc(OC(=O)C=C)c2)cc1
Enquiry: Given the listed items, does A or B have the lesser reported Activity? State your choice using its label.
Return: B

====

Property: Activity; scope: individual compounds
Assay: Antioxidant activity assessed as ABTS radical scavenging activity at 25 uM after 15 mins
Format: functional
Set-up: reference not given here
Entry rule: numbers only, all in mg.equiv.

// solved cases for Activity follow
COMPOUND: C=CC(=O)Oc1ccc(CCc2cc(OC(=O)C=C)cc(OC(=O)C=C)c2)cc1
Activity [mg.equiv]: 15.9

COMPOUND: Oc1ccc(CCc2cc(O)cc(O)c2)cc1 [DIHYDRORESVERATROL]
Activity [mg.equiv]: 4970

COMPOUND: CCCOc1ccc(CCc2cc(OCCC)cc(OCCC)c2)cc1
Activity [mg.equiv]: 30.2

Enquiry: If you can, please state the reported Activity value of "CCCC(=O)Oc1ccc(CCc2cc(OC(=O)CCC)cc(OC(=O)CCC)c2)cc1" .
Return: 94.3

Enquiry: Entry "C=CCOc1ccc(CCc2cc(OCC=C)cc(OCC=C)c2)cc1" : reported Activity = ?
Return: 119

====

Target: UniProt P11344
Sequence (whole entry): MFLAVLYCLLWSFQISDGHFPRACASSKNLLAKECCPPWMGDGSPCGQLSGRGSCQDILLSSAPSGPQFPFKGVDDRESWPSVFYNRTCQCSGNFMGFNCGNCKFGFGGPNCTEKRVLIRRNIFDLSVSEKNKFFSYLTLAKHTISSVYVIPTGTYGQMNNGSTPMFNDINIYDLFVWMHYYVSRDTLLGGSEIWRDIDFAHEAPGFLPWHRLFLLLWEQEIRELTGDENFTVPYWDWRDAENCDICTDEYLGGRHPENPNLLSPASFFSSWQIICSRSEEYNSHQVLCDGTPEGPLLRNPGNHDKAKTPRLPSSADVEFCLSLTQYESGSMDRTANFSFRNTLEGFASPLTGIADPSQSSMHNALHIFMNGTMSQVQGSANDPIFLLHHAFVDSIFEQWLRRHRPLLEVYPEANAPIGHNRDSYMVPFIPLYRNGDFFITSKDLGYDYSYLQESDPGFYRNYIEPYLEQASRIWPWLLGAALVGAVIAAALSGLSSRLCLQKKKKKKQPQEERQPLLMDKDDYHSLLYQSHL
Experiment: Inhibition of tyrosinase in mouse B16 cells assessed as effect on alpha-MSH-induced melanin formation at 25 uM after 24 hrs relative to control
Type: cell-based
Parameters: scale not given: the % may be the effect or the level left
PROPERTY_LABEL: Activity (%)

MOLECULE: O=C(OCc1ccccc1)Oc1ccc(CCc2cc(OC(=O)OCc3ccccc3)cc(OC(=O)OCc3ccccc3)c2)cc1
READING_UNIT: %
Activity: 89.9
--
MOLECULE: O=C(Oc1ccc(CCc2cc(OC(=O)C3CCCC3)cc(OC(=O)C3CCCC3)c2)cc1)C1CCCC1
READING_UNIT: %
Activity: 95.9
--
MOLECULE: C=CCOc1ccc(CCc2cc(OCC=C)cc(OCC=C)c2)cc1
READING_UNIT: %
Activity: 96.5
--
MOLECULE: O=C(Oc1ccc(CCc2cc(OC(=O)c3ccccc3)cc(OC(=O)c3ccccc3)c2)cc1)c1ccccc1
READING_UNIT: %
Activity: 87
--
MOLECULE: CCCC(=O)Oc1ccc(CCc2cc(OC(=O)CCC)cc(OC(=O)CCC)c2)cc1
READING_UNIT: %
Activity: 96.2

====

Molecular target: Tyrosinase (Mus musculus)
Test: Inhibition of tyrosinase in mouse B16 cells assessed as effect on alpha-MSH-induced melanin formation at 25 uM after 24 hrs relative to control
Format: cell-based
Parameters: scale not given: the % may be the effect or the level left
PROPERTY_LABEL: Activity (%)

COMPOUND: O=C(Oc1ccc(CCc2cc(OC(=O)c3ccc(Cl)cc3)cc(OC(=O)c3ccc(Cl)cc3)c2)cc1)c1ccc(Cl)cc1
Activity / %: 99.2

COMPOUND: Oc1ccc(CCc2cc(O)cc(O)c2)cc1 [DIHYDRORESVERATROL]
Activity / %: 78.3

COMPOUND: Oc1ccc(/C=C/c2cc(O)cc(O)c2)cc1
Activity / %: 80.2
